Molecular target: TYK2 (Homo sapiens)
Construct: JAK1 (aa 850-1154) and TYK2 (aa 871-1187) are expressed with an N-terminally fused GST-tag; GST (N)
Assay: JAK kinase assay (HTRF, phosphorylation of synthetic peptide), TYK2
Settings: catalytic domain, ATP at Km (13 μM); read-out: TYK2 kinase inhibitory activity (EC50)
QUANTITY NAME: EC50

{"MOLECULE": "CN(CCOc1ccc(C#N)cc1)S(=O)(=O)N1CCN(c2ncnc3[nH]ccc23)CC12CC2 [Example 72]", "QUANTITY NAME": "EC50", "OBSERVED MEASUREMENT": "> 0.5 µM"}
{"MOLECULE": "O=S(=O)(N(CCCO)CCc1ccccc1)N1CCN(c2ncnc3[nH]ccc23)CC12CC2 [Example 5]", "QUANTITY NAME": "EC50", "OBSERVED MEASUREMENT": "0.1 to 0.5 µM"}

Now look at this entry.
The reported EC50 of the molecule CN(CC1CCC1)S(=O)(=O)N1CCN(c2ncnc3[nH]ccc23)CC12CC2 [Example 60] was < 0.1 µM

----------
Biological target: TYK2 (Homo sapiens, UniProt P29597)
Construct: JAK1 (aa 850-1154) and TYK2 (aa 871-1187) are expressed with an N-terminally fused GST-tag; GST (N)
Sequence (P29597 871-1187): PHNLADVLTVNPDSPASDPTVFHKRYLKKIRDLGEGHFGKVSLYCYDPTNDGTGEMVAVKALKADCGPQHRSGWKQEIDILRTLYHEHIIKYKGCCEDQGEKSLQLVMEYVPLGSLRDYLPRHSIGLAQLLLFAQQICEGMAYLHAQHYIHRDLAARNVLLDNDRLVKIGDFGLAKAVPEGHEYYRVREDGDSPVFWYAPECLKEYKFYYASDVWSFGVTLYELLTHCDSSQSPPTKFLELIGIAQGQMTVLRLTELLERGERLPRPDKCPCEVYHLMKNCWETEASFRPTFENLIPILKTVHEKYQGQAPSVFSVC
Experiment: JAK kinase assay (HTRF, phosphorylation of synthetic peptide), TYK2
Conditions: catalytic domain, ATP at Km (13 μM); read-out: TYK2 kinase inhibitory activity (EC50)
pEC50: −log10 of the molar value.
QUANTITY NAME: pEC50

{"MOLECULE": "CN(CC1CCN(C=O)C1)S(=O)(=O)N1CCN(c2ncnc3[nH]ccc23)CC12CC2 (stereo not drawn)", "pEC50": "< 6.30"}
{"MOLECULE": "CN(Cc1ccc(F)cc1)S(=O)(=O)N1CCN(c2ncnc3[nH]ccc23)CC12CC2", "pEC50": "6.30 to 7.00"}

Now look at this entry.
The reported pEC50 of the molecule O=S(=O)(N1CCCCC1)N1CCN(c2ncnc3[nH]ccc23)CC12CC2 was 6.30 to 7.00

----------
Listing: EC50 of selected molecules
Biological target: JAK3 (Homo sapiens)
Construct: All four purified enzymes contain only the catalytic domain; His (N)
Sequence (P52333 822-1111 limits assumed): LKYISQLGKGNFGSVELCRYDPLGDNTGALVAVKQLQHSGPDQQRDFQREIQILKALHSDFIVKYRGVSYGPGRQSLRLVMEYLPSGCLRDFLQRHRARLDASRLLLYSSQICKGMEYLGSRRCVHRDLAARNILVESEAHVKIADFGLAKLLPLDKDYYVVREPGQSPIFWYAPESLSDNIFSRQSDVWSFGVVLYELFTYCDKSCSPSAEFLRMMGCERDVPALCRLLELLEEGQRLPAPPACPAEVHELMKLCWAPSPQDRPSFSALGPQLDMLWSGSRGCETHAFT
Assay: JAK kinase assay (HTRF, phosphorylation of synthetic peptide), JAK3
Details: catalytic domain, ATP at Km (2 μM); read-out: JAK3 kinase inhibitory activity (EC50)

{"MOLECULE": "CNS(=O)(=O)N1CCN(c2ncnc3[nH]ccc23)CC12CC2 [Int 3]", "OBSERVED MEASUREMENT": "< 100 nM"}

The reported EC50 of the molecule CN(C(=O)CC1CCS(=O)(=O)C1)S(=O)(=O)N1CCN(c2ncnc3[nH]ccc23)CC12CC2 (stereo not drawn) [Example 138] was 100 to 500 nM

The reported EC50 of the molecule CN(CC1CCN(C(=O)CCC#N)C1)S(=O)(=O)N1CCN(c2ncnc3[nH]ccc23)CC12CC2 (stereo not drawn) [Example 126] was 100 to 500 nM

The reported EC50 of the molecule CN(CCOc1ccccc1)S(=O)(=O)N1CCN(c2ncnc3[nH]ccc23)CC12CC2 [Example 31] was 100 to 500 nM

The reported EC50 of the molecule CN(C1CCCC1)S(=O)(=O)N1CCN(c2ncnc3[nH]ccc23)CC12CC2 [Example 61] was < 100 nM

The reported EC50 of the molecule O=S(=O)(N(CCc1ccccc1)CC1CC1)N1CCN(c2ncnc3[nH]ccc23)CC12CC2 [Example 2] was 100 to 500 nM

----------
Listing: pEC50 of selected compounds
Molecular target: TYK2 (Homo sapiens, UniProt P29597)
Construct: JAK1 (aa 850-1154) and TYK2 (aa 871-1187) are expressed with an N-terminally fused GST-tag; GST (N)
Assay: JAK kinase assay (HTRF, phosphorylation of synthetic peptide), TYK2
Conditions: catalytic domain, ATP at Km (13 μM); read-out: TYK2 kinase inhibitory activity (EC50)
pEC50: −log10 of the molar value.

{"COMPOUND": "CN(C(=O)C1CCCC1)S(=O)(=O)N1CCN(c2ncnc3[nH]ccc23)CC12CC2", "pEC50": "6.30 to 7.00"}

The reported pEC50 of the compound CC(C)(C)OC(=O)N(CCCS(C)(=O)=O)S(=O)(=O)N1CCN(c2ncnc3[nH]ccc23)CC12CC2 was < 6.30

The reported pEC50 of the compound CN(CC1CCOCC1)S(=O)(=O)N1CCN(c2ncnc3[nH]ccc23)CC12CC2 was 6.30 to 7.00

The reported pEC50 of the compound CN(CC1CCCS(=O)(=O)C1)S(=O)(=O)N1CCN(c2ncnc3[nH]ccc23)CC12CC2 (stereo not shown) was 6.30 to 7.00

----------
Target: TYK2 (Homo sapiens, UniProt P29597)
Construct: JAK1 (aa 850-1154) and TYK2 (aa 871-1187) are expressed with an N-terminally fused GST-tag; GST (N)
Assay: JAK kinase assay (HTRF, phosphorylation of synthetic peptide), TYK2
Conditions: catalytic domain, ATP at Km (13 μM); read-out: TYK2 kinase inhibitory activity (EC50)
pEC50: −log10 of the molar value.
QUANTITY NAME: pEC50

{"MOLECULE": "CN(OCc1ccccc1)S(=O)(=O)N1CCN(c2ncnc3[nH]ccc23)CC12CC2 [Example 174]", "pEC50": "6.30 to 7.00"}
{"MOLECULE": "N#CCN(CCO)S(=O)(=O)N1CCN(c2ncnc3[nH]ccc23)CC12CC2 [Example 108]", "pEC50": "6.30 to 7.00"}
{"MOLECULE": "O=S(=O)(NCc1ccccc1)N1CCN(c2ncnc3[nH]ccc23)CC12CC2 [Example 147]", "pEC50": "6.30 to 7.00"}
{"MOLECULE": "COC(=O)CN(C)S(=O)(=O)N1CCN(c2ncnc3[nH]ccc23)CC12CC2 [Example 34]", "pEC50": "6.30 to 7.00"}

The reported pEC50 of the molecule CN(CC1CCNC1)S(=O)(=O)N1CCN(c2ncnc3[nH]ccc23)CC12CC2 (stereo not drawn) [Int 25] was < 6.30

The reported pEC50 of the molecule O=S(=O)(NC1COC1)N1CCN(c2ncnc3[nH]ccc23)CC12CC2 [Int 41] was 6.30 to 7.00

The reported pEC50 of the molecule CN(CC1CCC(C(C)(C)C)CC1)S(=O)(=O)N1CCN(c2ncnc3[nH]ccc23)CC12CC2 (stereo not drawn) [Example 84] was < 6.30

The reported pEC50 of the molecule CN(C(=O)C1CCCS(=O)(=O)C1)S(=O)(=O)N1CCN(c2ncnc3[nH]ccc23)CC12CC2 (stereo not drawn) [Example 140] was < 6.30

The reported pEC50 of the molecule CN(Cc1ccc(C#N)cc1)S(=O)(=O)N1CCN(c2ncnc3[nH]ccc23)CC12CC2 [Example 37] was 6.30 to 7.00

----------
Listing: EC50 of selected molecules
Target: TYK2 (Homo sapiens, UniProt P29597)
Construct: JAK1 (aa 850-1154) and TYK2 (aa 871-1187) are expressed with an N-terminally fused GST-tag; GST (N)
Assay: JAK kinase assay (HTRF, phosphorylation of synthetic peptide), TYK2
Conditions: catalytic domain, ATP at Km (13 μM); read-out: TYK2 kinase inhibitory activity (EC50)

Worked examples, 6 molecules total:
{"MOLECULE": "CN(C1CNC1)S(=O)(=O)N1CCN(c2ncnc3[nH]ccc23)CC12CC2 [Int 50]", "MEASUREMENT TARGET": "TYK2 (Homo sapiens, UniProt P29597)", "EC50": "> 500 nM"}
{"MOLECULE": "CN(CCOc1ccc(Cl)cc1)S(=O)(=O)N1CCN(c2ncnc3[nH]ccc23)CC12CC2 [Example 69]", "MEASUREMENT TARGET": "TYK2 (Homo sapiens, UniProt P29597)", "EC50": "> 500 nM"}
{"MOLECULE": "CN(CC1CCN(S(=O)(=O)CCCC#N)CC1)S(=O)(=O)N1CCN(c2ncnc3[nH]ccc23)CC12CC2 [Example 159]", "MEASUREMENT TARGET": "TYK2 (Homo sapiens, UniProt P29597)", "EC50": "100 to 500 nM"}
{"MOLECULE": "CNS(=O)(=O)N1CCN(c2ncnc3[nH]ccc23)CC12CC2 [Int 3]", "MEASUREMENT TARGET": "TYK2 (Homo sapiens, UniProt P29597)", "EC50": "100 to 500 nM"}
{"MOLECULE": "CN(C[C@@H]1CCC(=O)N1)S(=O)(=O)N1CCN(c2ncnc3[nH]ccc23)CC12CC2 [Example 183]", "MEASUREMENT TARGET": "TYK2 (Homo sapiens, UniProt P29597)", "EC50": "< 100 nM"}
{"MOLECULE": "CN(Cc1ccccc1)S(=O)(=O)N1CCN(c2ncnc3[nH]ccc23)CC12CC2 [Example 52]", "MEASUREMENT TARGET": "TYK2 (Homo sapiens, UniProt P29597)", "EC50": "100 to 500 nM"}

Now look at this entry.
The reported EC50 of the molecule CN(C[C@@H]1CCCN1C=O)S(=O)(=O)N1CCN(c2ncnc3[nH]ccc23)CC12CC2 [Example 191] was 100 to 500 nM
